assay: xn = mol fraction of the nth substance listed; settings: 313.2 K; 100 kPa; Liquid; Taylor dispersion method; x1 = 0
QUANTITY_KIND: binary diffusion coefficient (m2/s)

INSERT INTO assay_data (compound, val) VALUES
  ('O=C[C@H](O)[C@@H](O)[C@@H](O)[C@H](O)CO [(+)-galactose] + O', '1.01e-09'),
  ('O=C[C@@H](O)[C@H](O)[C@H](O)CO [D-(-)-arabinose] + O', '1.11e-09'),
  ('O=C[C@@H](O)[C@@H](O)[C@H](O)[C@H](O)CO [D-mannose] + O', '1.02e-09'),
  ('O=C[C@H](O)[C@@H](O)[C@H](O)[C@H](O)CO [D-glucose] + O', '9.97e-10'),
  ('O=C[C@H](O)[C@@H](O)[C@H](O)CO [D-xylose] + O', '1.11e-09'),
  ('OC[C@H]1O[C@@](CO)(O[C@H]2O[C@H](CO)[C@@H](O)[C@H](O)[C@H]2O)[C@@H](O)[C@@H]1O [D-sucrose] + O', '7.92e-10');

From: the NIST ThermoML archive (doi:10.1021/je0601816)
